The reported measurements were obtained from patent US11034913B2.

Tested on: mixed Gram-negative bacteria
Assay: Minimum inhibitory concentration testing (biostat candidate screening, Phase 1 and Phase 2; dip slide counts)
Type: cell-based
Details: Phase 1; log bacterial counts at 24 and 48 h versus DCHA standard; scale 0-6, 3 = matches DCHA standard, higher = better
Please go through the items and note down their Differential Value Scores, Round 2.

### Prompt Item CCCCC(CC)CN (stereo not drawn) with mixed Gram-negative bacteria - Differential Value Scores, Round 2?
### Response 4.5

### Prompt Notebook: pull reported Differential Value Scores, Round 2 for mixed Gram-negative bacteria, entry NC1CCC(N)CC1 (stereo not drawn)
### Response 4.5

### Prompt Requested read-out Differential Value Scores, Round 2, target or system mixed Gram-negative bacteria, entry NC1CCCCC1N (stereo not drawn)
### Response 4

### Prompt Give the reported Differential Value Scores, Round 2 for CC1CCCCC1N (stereo not drawn) (system: mixed Gram-negative bacteria).
### Response 2.5

### Prompt Return Differential Value Scores, Round 2 measured with mixed Gram-negative bacteria given this compound: NCCCCCCN
### Response 4

### Prompt Short answer please: Differential Value Scores, Round 2, mixed Gram-negative bacteria, entry CC(C)CCCC(C)N (stereo not drawn)
### Response 4

---

Tested on: mixed Gram-negative bacteria
Experiment: Minimum inhibitory concentration testing (biostat candidate screening, Phase 1 and Phase 2; dip slide counts)
Format: cell-based
Conditions: Phase 2, Round 2, dilution 6 %, 24 hours
I'd appreciate it if you could supply Amount of new Gram-negative bacteria colonies values for the items below.

### Prompt Which Amount of new Gram-negative bacteria colonies is listed for CCCCC(CC)CN(CC(CC)CCCC)CC(CC)CCCC (centres unmarked) [C9, Tris(2-ethylhexylamine)] ?
### Response 10^2

### Prompt # query: Amount of new Gram-negative bacteria colonies of entry CN(C)CCN(C)CCN(C)C [C14, Pentamethyldiethylene triamine]
### Response 10^3

### Prompt I am curious: what Amount of new Gram-negative bacteria colonies value has been reported for CCC(N)CCN (centres unmarked) [C10, 1,3-pentanediamine] ?
### Response 10^2

### Prompt I have this molecule here, NC1CCC(CC2CCC(N)CC2)CC1 (centres unmarked) [C11, 4,4′-methylene bis(cyclohexylamine)] , and I need its recorded Amount of new Gram-negative bacteria colonies.
### Response 10^2

### Prompt Any idea what its Amount of new Gram-negative bacteria colonies is? The molecule is CN(C)CCCN(C)CCCN(C)C [C13]
### Response 10^2
